# System Tested: human recombinant dopamine D2 receptor (Homo sapiens (Human))
# Sequence (P14416 whole entry): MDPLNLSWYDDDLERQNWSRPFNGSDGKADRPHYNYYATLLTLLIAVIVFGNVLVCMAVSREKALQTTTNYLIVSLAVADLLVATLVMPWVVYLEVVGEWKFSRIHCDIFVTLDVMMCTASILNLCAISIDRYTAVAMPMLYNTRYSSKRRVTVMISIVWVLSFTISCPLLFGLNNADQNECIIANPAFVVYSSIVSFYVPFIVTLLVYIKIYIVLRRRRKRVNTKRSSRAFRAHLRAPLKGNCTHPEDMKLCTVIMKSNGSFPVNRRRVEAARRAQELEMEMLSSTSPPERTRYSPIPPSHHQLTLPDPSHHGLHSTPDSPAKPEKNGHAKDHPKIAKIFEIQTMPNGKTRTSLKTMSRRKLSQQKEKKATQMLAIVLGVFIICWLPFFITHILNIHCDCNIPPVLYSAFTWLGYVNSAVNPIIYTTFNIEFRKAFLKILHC
# Method Notes: Test of binding inhibition for dopamine D2 receptor ([3H]-Methylspiperone SPA)
# Experimental Setup: [3H]-Methylspiperone 1.2 nM, Jump-In HEK cell membranes; read-out: hD2_Ki
pKi: −log10 of the molar value.
Measured pKi by item

{"Compound": "Cc1cc(CC(=O)N[C@H]2CC[C@H](CCN3CCc4ccc(CCC(F)(F)F)nc4CC3)CC2)on1 [I′-17]", "Value Prefix": "<", "pKi": 5.64}
{"Compound": "CN1Cc2c(C(=O)NC34CCC(CCN5CCc6nc(OCC(F)F)sc6CC5)(CC3)CC4)cccc2C1=O [II-10]", "Value Prefix": "<", "pKi": 5.64}
{"Compound": "Cn1cc(CC(=O)N[C@H]2CC[C@H](CCN3CCc4nc(OCC(F)(F)F)sc4CC3)CC2)c(F)n1 [I′-24]", "Value Prefix": "=", "pKi": 6.20}
{"Compound": "Cn1ncc(CC(=O)N[C@H]2CC[C@](F)(CCN3CCc4ccc(OCC(F)F)nc4CC3)CC2)c1F [I′-35]", "Value Prefix": "=", "pKi": 5.74}
{"Compound": "Cc1ncc(CC(=O)N[C@H]2CC[C@H](CCN3CCc4ccc(CCC(F)(F)F)nc4CC3)CC2)cn1 [I′-16]", "Value Prefix": "=", "pKi": 5.74}
{"Compound": "Cn1ncc(CC(=O)N[C@H]2CC[C@H](CCN3CCc4nc(OCC(F)(F)F)sc4CC3)CC2)c1F [I′-22]", "Value Prefix": "=", "pKi": 5.70}
{"Compound": "Cc1cnc(OCC(=O)N[C@H]2CC[C@H](CCN3CCc4ccc(CCC(F)(F)F)nc4CC3)CC2)cn1 [I′-13]", "Value Prefix": "=", "pKi": 6.04}
{"Compound": "Cc1ncc(CC(=O)N[C@H]2CC[C@H](CCN3CCc4nc(OCC(F)F)sc4CC3)CC2)cn1 [I′-56]", "Value Prefix": "=", "pKi": 5.85}

###

# System Tested: human recombinant dopamine D3 receptor (Homo sapiens (Human), UniProt P35462)
# Sequence (P35462 whole entry): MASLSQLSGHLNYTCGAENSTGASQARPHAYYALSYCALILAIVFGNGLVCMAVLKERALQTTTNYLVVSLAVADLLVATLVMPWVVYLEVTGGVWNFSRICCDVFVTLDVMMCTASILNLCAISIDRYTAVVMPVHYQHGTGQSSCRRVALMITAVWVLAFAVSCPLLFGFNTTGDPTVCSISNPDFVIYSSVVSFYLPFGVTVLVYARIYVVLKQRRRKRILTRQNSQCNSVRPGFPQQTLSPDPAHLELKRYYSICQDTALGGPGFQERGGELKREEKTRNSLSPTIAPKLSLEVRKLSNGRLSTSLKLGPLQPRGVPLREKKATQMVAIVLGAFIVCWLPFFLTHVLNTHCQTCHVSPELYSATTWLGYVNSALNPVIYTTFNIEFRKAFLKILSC
# Method Notes: Test of binding inhibition for dopamine D3 receptor ([3H]-Methylspiperone SPA)
# Experimental Setup: Jump-In HEK cell membranes, 2 nM [3H]-Methylspiperone, 120 min at 25° C.; read-out: hD3_Ki
Ki values for the compounds below.

{"Test Smiles": "Cn1cc2c(C(=O)NC34CCC(CCN5CCc6nc(OCC(F)(F)F)sc6CC5)(CC3)CC4)cccc2n1", "System Tested": "human recombinant dopamine D3 receptor (Homo sapiens (Human), UniProt P35462)", "Unit Annotation": "pM", "Ki": 84}
{"Test Smiles": "Cc1ncc(OCC(=O)N[C@H]2CC[C@H](CCN3CCc4sc(C5CC(F)(F)C5)nc4C3)CC2)cn1", "System Tested": "human recombinant dopamine D3 receptor (Homo sapiens (Human), UniProt P35462)", "Unit Annotation": "pM", "Ki": 490}
{"Test Smiles": "Cn1ncc(CC(=O)N[C@H]2CC[C@](F)(CCN3CCc4ccc(CCC(F)(F)F)nc4CC3)CC2)n1", "System Tested": "human recombinant dopamine D3 receptor (Homo sapiens (Human), UniProt P35462)", "Unit Annotation": "pM", "Ki": 320}
{"Test Smiles": "Cc1nnc(CC(=O)N[C@H]2CC[C@](F)(CCN3CCc4nc(OCC(F)(F)C(F)F)sc4CC3)CC2)o1", "System Tested": "human recombinant dopamine D3 receptor (Homo sapiens (Human), UniProt P35462)", "Unit Annotation": "pM", "Ki": 160}

###

# System Tested: hERG channel (IKr) (Homo sapiens (Human))
# Sequence (Q12809 whole entry): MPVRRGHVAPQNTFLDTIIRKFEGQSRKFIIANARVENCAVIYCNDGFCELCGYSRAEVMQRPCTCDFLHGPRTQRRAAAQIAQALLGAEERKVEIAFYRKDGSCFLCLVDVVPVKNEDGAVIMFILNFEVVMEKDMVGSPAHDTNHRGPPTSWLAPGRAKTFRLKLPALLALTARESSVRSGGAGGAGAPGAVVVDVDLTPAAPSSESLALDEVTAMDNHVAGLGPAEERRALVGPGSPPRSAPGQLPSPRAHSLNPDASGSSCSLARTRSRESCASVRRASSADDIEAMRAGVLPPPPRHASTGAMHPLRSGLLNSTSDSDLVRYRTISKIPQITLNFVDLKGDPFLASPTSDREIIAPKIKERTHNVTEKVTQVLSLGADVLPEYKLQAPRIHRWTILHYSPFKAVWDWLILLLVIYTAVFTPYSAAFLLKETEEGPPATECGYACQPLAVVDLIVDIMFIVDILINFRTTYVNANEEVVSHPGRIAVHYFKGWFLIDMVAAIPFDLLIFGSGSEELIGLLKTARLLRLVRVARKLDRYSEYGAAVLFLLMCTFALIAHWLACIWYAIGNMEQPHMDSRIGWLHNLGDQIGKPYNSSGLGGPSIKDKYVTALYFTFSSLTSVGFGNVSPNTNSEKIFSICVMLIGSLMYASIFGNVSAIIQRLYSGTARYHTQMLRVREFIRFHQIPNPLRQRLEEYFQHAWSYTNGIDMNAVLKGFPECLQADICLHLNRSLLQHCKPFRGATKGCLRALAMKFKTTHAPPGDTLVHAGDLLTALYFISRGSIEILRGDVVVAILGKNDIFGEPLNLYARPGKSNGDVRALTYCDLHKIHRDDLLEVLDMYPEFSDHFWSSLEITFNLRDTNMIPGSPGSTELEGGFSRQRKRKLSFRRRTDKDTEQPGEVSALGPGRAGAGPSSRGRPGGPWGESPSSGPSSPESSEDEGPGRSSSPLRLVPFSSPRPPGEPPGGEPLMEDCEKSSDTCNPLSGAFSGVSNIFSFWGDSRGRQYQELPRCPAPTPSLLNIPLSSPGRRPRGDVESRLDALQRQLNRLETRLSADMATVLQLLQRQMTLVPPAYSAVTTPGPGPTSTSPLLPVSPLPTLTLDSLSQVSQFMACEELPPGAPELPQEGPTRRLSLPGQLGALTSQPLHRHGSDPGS
# Method Notes: hERG test (whole cell patch clamp, IKr)
# Assay type: cell-based
# Experimental Setup: human, CHO cells expressing hERG channel, pH 7.4, 3 μM, tail peak current
Consider the following partition of reported inhibition at 3 µM into named classes: 0 (below 20%), 1 (20% to below 30%), 2 (30% or more)

{"Compound": "Cn1cc2c(C(=O)N[C@H]3CC[C@H](CCN4CCc5nc(OCC(C)(F)F)sc5CC4)OC3)cccc2n1 [Example I-009]", "System Tested": "hERG channel (IKr) (Homo sapiens (Human))", "Qualitative Label": 2}
{"Compound": "Cn1ncc(CC(=O)N[C@H]2CC[C@H](CCN3CCc4sc(OCC(C)(F)F)nc4C3)CC2)n1 [Example I-005]", "System Tested": "hERG channel (IKr) (Homo sapiens (Human))", "Qualitative Label": 0}
{"Compound": "CCc1ncccc1C(=O)N[C@H]1CC[C@H](CCN2CCc3ccc(OC4CCC4)nc3CC2)CC1 [Example I-088]", "System Tested": "hERG channel (IKr) (Homo sapiens (Human))", "Qualitative Label": 2}
{"Compound": "Cn1cc(CC(=O)N[C@H]2CC[C@H](CCN3CCc4ccc(OC5CCC5)nc4CC3)CC2)cn1 [Example I-032]", "System Tested": "hERG channel (IKr) (Homo sapiens (Human))", "Qualitative Label": 2}
{"Compound": "CN1Cc2c(C(=O)N[C@H]3CC[C@H](CCN4CCc5sc(C6CC(F)(F)C6)nc5C4)CC3)cccc2C1=O [Example I-012]", "System Tested": "hERG channel (IKr) (Homo sapiens (Human))", "Qualitative Label": 0}
{"Compound": "Cn1cc(CC(=O)N[C@H]2CC[C@H](CCN3CCc4nc(OCCC(F)(F)F)sc4CC3)CC2)cn1 [Example I-101]", "System Tested": "hERG channel (IKr) (Homo sapiens (Human))", "Qualitative Label": 2}
{"Compound": "CC[C@@H](C)Oc1ccc2c(n1)CCN(CC[C@H]1CC[C@H](NC(=O)Cc3cnn(C)n3)CC1)CC2 [Example I-111]", "System Tested": "hERG channel (IKr) (Homo sapiens (Human))", "Qualitative Label": 0}
{"Compound": "Cc1ncc(OCC(=O)N[C@H]2CC[C@](F)(CCN3CCc4nc(OCC(C)(F)F)sc4CC3)CC2)cn1 [Example I-044]", "System Tested": "hERG channel (IKr) (Homo sapiens (Human))", "Qualitative Label": 1}
{"Compound": "Cn1c(C(=O)NN2CCC(CCN3CCc4sc(OCC(F)(F)F)nc4C3)CC2)cccc1=O [Example I-080]", "System Tested": "hERG channel (IKr) (Homo sapiens (Human))", "Qualitative Label": 0}
{"Compound": "Cn1cc(OCC(=O)N[C@H]2CC[C@](F)(CCN3CCc4nc(OCC(C)(F)F)sc4CC3)CC2)cn1 [Example I-075]", "System Tested": "hERG channel (IKr) (Homo sapiens (Human))", "Qualitative Label": 2}
{"Compound": "Cn1cc2ccc(C(=O)N[C@H]3CC[C@H](CCN4CCc5nc(OCC(C)(F)F)sc5CC4)OC3)cc2n1 [Example I-066]", "System Tested": "hERG channel (IKr) (Homo sapiens (Human))", "Qualitative Label": 0}
{"Compound": "Cn1cc2c(C(=O)NN3CCC(F)(CCN4CCc5sc(OCC(F)(F)F)nc5C4)CC3)cccc2n1 [Example I-028]", "System Tested": "hERG channel (IKr) (Homo sapiens (Human))", "Qualitative Label": 0}
{"Compound": "Cc1ncccc1C(=O)N[C@H]1CC[C@H](CCN2CCc3nc(OCC(C)(F)F)sc3CC2)CC1 [Example I-034]", "System Tested": "hERG channel (IKr) (Homo sapiens (Human))", "Qualitative Label": 2}
{"Compound": "Cc1ncc(CC(=O)N[C@H]2CC[C@H](CCN3CCc4nc(OCCC(F)(F)F)sc4CC3)CC2)o1 [Example I-102]", "System Tested": "hERG channel (IKr) (Homo sapiens (Human))", "Qualitative Label": 2}
{"Compound": "Cc1ncc(CC(=O)N[C@H]2CC[C@H](CCN3CCc4ccc(OC(C)C)nc4CC3)CC2)o1 [Example I-006]", "System Tested": "hERG channel (IKr) (Homo sapiens (Human))", "Qualitative Label": 1}
{"Compound": "Cc1ncc(CC(=O)N[C@H]2CC[C@H](CCN3CCc4ccc(OC5CCC5)nc4CC3)CC2)o1 [Example I-033]", "System Tested": "hERG channel (IKr) (Homo sapiens (Human))", "Qualitative Label": 0}
{"Compound": "Cc1nnc(CC(=O)N[C@H]2CC[C@](F)(CCN3CCc4ccc(OCC(C)(F)F)nc4CC3)CC2)s1 [Example I-018]", "System Tested": "hERG channel (IKr) (Homo sapiens (Human))", "Qualitative Label": 2}
{"Compound": "Cn1ncc(CC(=O)N[C@H]2CC[C@H](CCN3CCc4nc(OCC(C)(F)F)sc4CC3)CC2)n1 [I′-38]", "System Tested": "hERG channel (IKr) (Homo sapiens (Human))", "Qualitative Label": 1}
{"Compound": "Cc1ncccc1C(=O)N[C@H]1CC[C@H](CCN2CCc3nc(OC4CC(F)(F)C4)sc3CC2)CC1 [Example I-019]", "System Tested": "hERG channel (IKr) (Homo sapiens (Human))", "Qualitative Label": 0}
{"Compound": "Cn1cc(CC(=O)N[C@H]2CC[C@](F)(CCN3CCc4ccc(OC5CCC5)nc4CC3)CC2)cn1 [Example I-104]", "System Tested": "hERG channel (IKr) (Homo sapiens (Human))", "Qualitative Label": 0}
{"Compound": "Cc1nnc(CC(=O)N[C@H]2CC[C@H](CCN3CCc4nc(OCCC(F)(F)F)sc4CC3)CC2)o1 [Example I-100]", "System Tested": "hERG channel (IKr) (Homo sapiens (Human))", "Qualitative Label": 2}
{"Compound": "Cc1ncc(OCC(=O)N[C@H]2CC[C@](F)(CCN3CCc4ccc(OCC(F)F)nc4CC3)CC2)cn1 [Example I-030]", "System Tested": "hERG channel (IKr) (Homo sapiens (Human))", "Qualitative Label": 1}
{"Compound": "Cc1nnc(CC(=O)N[C@H]2CC[C@H](CCN3CCc4sc(C5CC(F)(F)C5)nc4C3)CC2)s1 [Example I-071]", "System Tested": "hERG channel (IKr) (Homo sapiens (Human))", "Qualitative Label": 0}
{"Compound": "Cc1nc(CC(=O)N[C@H]2CC[C@](F)(CCN3CCc4ccc(OCC(F)F)nc4CC3)CC2)no1 [Example I-024]", "System Tested": "hERG channel (IKr) (Homo sapiens (Human))", "Qualitative Label": 0}
{"Compound": "O=C(N[C@H]1CC[C@H](CCN2CCc3nc(OCC(F)(F)F)sc3CC2)CC1)c1cccnc1C(F)F [Example I-048]", "System Tested": "hERG channel (IKr) (Homo sapiens (Human))", "Qualitative Label": 0}
{"Compound": "Cc1ncc(/C=C/C(=O)N[C@H]2CC[C@H](CCN3CCc4nc(OCC(C)(F)F)sc4CC3)CC2)cn1 [Example I-037]", "System Tested": "hERG channel (IKr) (Homo sapiens (Human))", "Qualitative Label": 1}
{"Compound": "Cc1cnc(CC(=O)N[C@H]2CC[C@](F)(CCN3CCc4nc(OCC(F)F)sc4CC3)CC2)o1 [Example I-038]", "System Tested": "hERG channel (IKr) (Homo sapiens (Human))", "Qualitative Label": 1}
